test_target: HLA-A*03:01
test_protocol: IEDB peptide-MHC binding, purified MHC/competitive/fluorescence; filed as Kd, often an IC50 or EC50 that approximates it; bounds were set here for any values at or beyond the usual limits of such assays
protocol_conditions: source organism: Toxoplasma gondii
pKd: −log10 of the molar value.
assay_readout: pKd

Form: sequence = RTWFYRTEF ; pKd = ≤ 4.70

* * *

test_target: HLA-A*24:02
test_protocol: IEDB peptide-MHC binding, purified MHC/competitive/fluorescence; filed as Kd, often an IC50 or EC50 that approximates it; bounds were set here for any values at or beyond the usual limits of such assays
protocol_conditions: source organism: Influenza A virus (A/Fort Monmouth/1/1947-mouse adapted(H1N1))
assay_readout: Kd (µM)
Numbers only, in µM.

Form: sequence = RLGKGYMF ; Kd = 0.0326

* * *

test_target: HLA-B*51:01
test_protocol: IEDB peptide-MHC binding, purified MHC/competitive/radioactivity; filed as Kd, often an IC50 or EC50 that approximates it; bounds were set here for any values at or beyond the usual limits of such assays
protocol_conditions: source organism: Vaccinia virus Copenhagen
assay_readout: pKd
Give bare numbers, as −log10 of the molar value.

Form: sequence = LILSCIFAFI ; pKd = 4.76

* * *

test_target: HLA-B*15:01
test_protocol: IEDB peptide-MHC binding, purified MHC/competitive/radioactivity; filed as Kd, often an IC50 or EC50 that approximates it; bounds were set here for any values at or beyond the usual limits of such assays
protocol_conditions: source organism: Dengue virus 2 Jamaica/1409/1983
For each of the sequences below, state its Kd.
Give bare numbers, in nM.

{"biopolymer_sequence": "RIKQRGILGY", "Kd [nM]": 46.6}

Form: sequence = QMAMTDTTPF ; Kd = 7.23

* * *

For each of the sequences below, state its Kd.
test_target: HLA-A*30:02
test_protocol: IEDB peptide-MHC binding, purified MHC/competitive/radioactivity; filed as Kd, often an IC50 or EC50 that approximates it; bounds were set here for any values at or beyond the usual limits of such assays
protocol_conditions: source organism: Dengue virus 2 Jamaica/1409/1983

{"biopolymer_sequence": "GYSQIGAGVY", "assay_readout": "Kd", "result": "127 nM"}
{"biopolymer_sequence": "WHYDQDHPY", "assay_readout": "Kd", "result": "≥ 39300 nM"}
{"biopolymer_sequence": "LHQVFGAIY", "assay_readout": "Kd", "result": "42.7 nM"}

Turning now to a further sequence:
Form: sequence = RIKQRGILGY ; Kd = 20.4 nM

* * *

test_target: HLA-B*46:01
test_protocol: IEDB peptide-MHC binding, purified MHC/direct/fluorescence; filed as Kd, often an IC50 or EC50 that approximates it; bounds were set here for any values at or beyond the usual limits of such assays
protocol_conditions: source organism: dengue virus type 4
assay_readout: Kd

Form: sequence = AQEDDQYVF ; Kd = ≥ 20 µM

* * *

test_target: HLA-B*27:03
test_protocol: IEDB peptide-MHC binding, purified MHC/competitive/fluorescence; filed as Kd, often an IC50 or EC50 that approximates it; bounds were set here for any values at or beyond the usual limits of such assays
protocol_conditions: source organism: Influenza A virus (A/Memphis/1/1978(H1N1))
assay_readout: Kd

Form: sequence = AVDADDSHF ; Kd = ≥ 20 µM

* * *

test_target: HLA-A*02:02
test_protocol: IEDB peptide-MHC binding, purified MHC/competitive/radioactivity; filed as Kd, often an IC50 or EC50 that approximates it; bounds were set here for any values at or beyond the usual limits of such assays
protocol_conditions: source organism: SARS coronavirus Tor2
Label 1.0 when Kd is strictly below 0.6 nM; otherwise label 0.0.

// known answers, use as guide
{"biopolymer_sequence": "MLLTFLTSLL", "test_target": "HLA-A*02:02", "class_assignment": 0.0}
{"biopolymer_sequence": "CLDAGINYV", "test_target": "HLA-A*02:02", "class_assignment": 1.0}

Request: Strictly below 0.6 nM: is that where Kd of SLVKPTVYV sits?
Result: 0.0

Request: Strictly below 0.6 nM: is that where Kd of CVMYASALV sits?
Result: 0.0

Request: Strictly below 0.6 nM: is that where Kd of TLIDFYLCFL sits?
Result: 1.0

* * *

test_target: HLA-B*46:01
test_protocol: IEDB peptide-MHC binding, purified MHC/direct/fluorescence; filed as Kd, often an IC50 or EC50 that approximates it; bounds were set here for any values at or beyond the usual limits of such assays
protocol_conditions: source organism: Mycobacterium tuberculosis
assay_readout: Kd

Form: sequence = AVFPRYHPR ; Kd = ≥ 20 µM

* * *

test_target: HLA-A*31:01
test_protocol: IEDB peptide-MHC binding, purified MHC/direct/fluorescence; filed as Kd, often an IC50 or EC50 that approximates it; bounds were set here for any values at or beyond the usual limits of such assays
protocol_conditions: source organism: Pasteurella multocida
assay_readout: Kd

For the sequence NNKSRLVAF , the measured Kd on HLA-A*31:01 was ≥ 20 µM

* * *

test_target: HLA-A*02:19
test_protocol: IEDB peptide-MHC binding, purified MHC/direct/fluorescence; filed as Kd, often an IC50 or EC50 that approximates it; bounds were set here for any values at or beyond the usual limits of such assays
protocol_conditions: source organism: Maciel virus
assay_readout: Kd

Form: sequence = HTQAIEGAW ; Kd = ≥ 20 µM

* * *

test_target: HLA-B*07:02
test_protocol: IEDB peptide-MHC binding, purified MHC/competitive/radioactivity; filed as Kd, often an IC50 or EC50 that approximates it; bounds were set here for any values at or beyond the usual limits of such assays
protocol_conditions: source organism: Vaccinia virus Copenhagen
pKd: −log10 of the molar value.
assay_readout: pKd

Form: sequence = LILSCIFAFI ; pKd = ≤ 4.16

* * *

test_target: HLA-B*39:01
test_protocol: IEDB peptide-MHC binding, purified MHC/competitive/fluorescence; filed as Kd, often an IC50 or EC50 that approximates it; bounds were set here for any values at or beyond the usual limits of such assays
protocol_conditions: source organism: Salmonella enterica subsp. enterica serovar Typhi
assay_readout: Kd (nM)
Answers are plain numbers, in nM.

Form: sequence = FVVDTTPPL ; Kd = 7

* * *

test_target: HLA-B*08:01
test_protocol: IEDB peptide-MHC binding, purified MHC/direct/fluorescence; filed as Kd, often an IC50 or EC50 that approximates it; bounds were set here for any values at or beyond the usual limits of such assays
protocol_conditions: source organism: Vibrio cholerae
assay_readout: Kd

Form: sequence = AENKKFKLH ; Kd = ≥ 20 µM

* * *

test_target: HLA-A*02:01
test_protocol: IEDB peptide-MHC binding, purified MHC/direct/fluorescence; filed as Kd, often an IC50 or EC50 that approximates it; bounds were set here for any values at or beyond the usual limits of such assays
protocol_conditions: source organism: Salmonella enterica
assay_readout: Kd (nM)
Give bare numbers, in nM.

For the sequence ATGDYVAFV , the measured Kd on HLA-A*02:01 was 67

* * *

test_target: HLA-B*15:01
test_protocol: IEDB peptide-MHC binding, purified MHC/direct/fluorescence; filed as Kd, often an IC50 or EC50 that approximates it; bounds were set here for any values at or beyond the usual limits of such assays
protocol_conditions: source organism: Rickettsia prowazekii
assay_readout: Kd

{"biopolymer_sequence": "ELYPTVNTY", "assay_readout": "Kd", "result": "228 nM"}

Turning now to a further sequence:
Form: sequence = VVNYDNSTK ; Kd = ≥ 20000 nM

* * *

test_target: HLA-A*01:01
test_protocol: IEDB peptide-MHC binding, purified MHC/competitive/fluorescence; filed as Kd, often an IC50 or EC50 that approximates it; bounds were set here for any values at or beyond the usual limits of such assays
protocol_conditions: source organism: Escherichia coli O139:H28 str. E24377A
assay_readout: Kd

Form: sequence = EIVAEYITY ; Kd = ≥ 20 µM

* * *

test_target: HLA-B*44:02
test_protocol: IEDB peptide-MHC binding, purified MHC/direct/fluorescence; filed as Kd, often an IC50 or EC50 that approximates it; bounds were set here for any values at or beyond the usual limits of such assays
protocol_conditions: source organism: Influenza A virus (A/camel/Mongolia/1982(H1N1))
pKd: −log10 of the molar value.
assay_readout: pKd

For the sequence ELDEIGEDV , the measured pKd on HLA-B*44:02 was ≤ 4.70

* * *

test_target: HLA-A*32:15
test_protocol: IEDB peptide-MHC binding, purified MHC/competitive/fluorescence; filed as Kd, often an IC50 or EC50 that approximates it; bounds were set here for any values at or beyond the usual limits of such assays
protocol_conditions: source organism: West Nile virus
assay_readout: pKd
One number for each entry, as −log10 of the molar value.

For the sequence ETTNWLWTF , the measured pKd on HLA-A*32:15 was 7.73

* * *

test_target: HLA-A*23:01
test_protocol: IEDB peptide-MHC binding, purified MHC/competitive/fluorescence; filed as Kd, often an IC50 or EC50 that approximates it; bounds were set here for any values at or beyond the usual limits of such assays
protocol_conditions: source organism: Mycobacterium tuberculosis variant bovis BCG str. Pasteur 1173P2
assay_readout: Kd

Form: sequence = AEDLADHHV ; Kd = ≥ 20 µM
